Every entry's value here was drawn from paper PMC12431657.

# Tested on: HCoV-229E
# Parameters: species or system Huh-7; HTS, protection from HCoV-229E induced cell death, luminescent cell viability (CellCounting-Lite 2.0), inhibition rate
# Condition label: 24 h post infection, 1 h compound pre-incubation; 10 µM; inhibitor
The campaign covered roughly 3,300 compounds. About 95 (3%) showed an effect of 50% or more. The entries come from a sample that favours strong results as a whole.
Property name: 229E Inhibition rate (%)
Reply numerically in %, unit not repeated.

> print(dat)
                                compound  study.system  value.unit  measured.value
1  O=C(O)CNC(=O)c1ccccc1 [Hippuric acid]     HCoV-229E           %             8.9

Reported 229E Inhibition rate ( COc1ccc(CC(=O)O)cc1 [2-(4-Methoxyphenyl)acetic acid] ) = 0

Reported 229E Inhibition rate ( O=Cc1ccc(O)cc1 [p-Hydroxybenzaldehyde] ) = 10.9

Reported 229E Inhibition rate ( O=c1ccc2cc3ccoc3c(O)c2o1 [Xanthotoxol] ) = 35.1

Reported 229E Inhibition rate ( COc1cc(-c2coc3cc(O)c(OC)c(O)c3c2=O)cc(O)c1OC [Irigenin] ) = 11.4

Reported 229E Inhibition rate ( COc1cc(-c2coc3cc4c(c(OC)c3c2=O)OCO4)cc(OC)c1OC [Irisflorentin] ) = 11.3

Reported 229E Inhibition rate ( `O=P(O)(O)OC(CO)CO` ) = 11.7

Reported 229E Inhibition rate ( O=C(O)c1ccc(O)c(O)c1O [2,3,4-Trihydroxybenzoic acid] ) = 18

Reported 229E Inhibition rate ( Cc1ccccc1C(=O)NCC(=O)O [2-(2-Methylbenzamido)acetic acid] ) = 54.8

Reported 229E Inhibition rate ( Cc1ccccc1C(=O)O [o-Toluic acid] ) = 0

Reported 229E Inhibition rate ( COc1ccc(C(=O)O)cc1 [p-Anisic acid] ) = 5.8

====

Known 229E Inhibition rate of a selection of molecules
# Tested on: HCoV-229E
# Parameters: species or system Huh-7; HTS, protection from HCoV-229E induced cell death, luminescent cell viability (CellCounting-Lite 2.0), inhibition rate
# Condition label: 24 h post infection, 1 h compound pre-incubation; 10 µM; inhibitor
About 95 (3%) of roughly 3,300 compounds showed an effect of 50% or more. Only a selection was taken, and strong results are over-represented in it overall.

Molecule	Study system	229E Inhibition rate
CC[C@]12C=CCN3CC[C@]4(C(=C(C(=O)OC)C1)Nc1ccccc14)[C@@H]32 [Tabersonine]	HCoV-229E	0%
COc1cc(O)c(CC=C(C)C)c2c1C(=O)CC(c1ccc(O)cc1)O2 (stereo not shown) [Isoxanthohumol]	HCoV-229E	23.6%
CC(C)=CCC[C@](C)(O)[C@H]1CC[C@]2(C)[C@@H]1[C@H](O)C[C@@H]1[C@@]3(C)CC[C@H](O)C(C)(C)[C@@H]3[C@@H](O[C@@H]3O[C@H](CO)[C@@H](O)[C@H](O)[C@H]3O[C@@H]3O[C@H](CO)[C@@H](O)[C@H](O)[C@H]3O)C[C@]12C [Ginsenoside Rf]	HCoV-229E	28.3%
C=C[C@](C)(O)CC[C@H]1C(=C)CC[C@H]2C(C)(C)CCC[C@]12C [Manool]	HCoV-229E	42.5%
O=C(O)C1CSSC1 [Asparagusic acid]	HCoV-229E	15.6%
CC(C)=CCC[C@@](C)(O)[C@H]1CC[C@]2(C)[C@@H]1[C@H](O)C[C@@H]1[C@@]3(C)CC[C@H](O)C(C)(C)[C@@H]3[C@@H](O[C@@H]3O[C@H](CO)[C@@H](O)[C@H](O)[C@H]3O[C@@H]3O[C@@H](C)[C@H](O)[C@@H](O)[C@H]3O)C[C@]12C [20(R)-Ginsenoside Rg2]	HCoV-229E	5.2%
OC[C@H]1O[C@H](OC[C@H]2O[C@H](OC[C@H]3O[C@H](O[C@]4(CO)O[C@H](CO)[C@@H](O)[C@@H]4O)[C@H](O)[C@@H](O)[C@@H]3O)[C@H](O)[C@@H](O)[C@H]2O)[C@H](O)[C@@H](O)[C@H]1O [Stachyose (tetrahydrate)]	HCoV-229E	43.8%
CCCCCC1C(=O)CCC1CC(=O)OC (stereo not shown) [Methyl dihydrojasmonate]	HCoV-229E	54.7%

Reported 229E Inhibition rate ( CCCCCCCCCCCCCCCCCC(=O)OC [Methyl stearate] ) = 17.9%

Reported 229E Inhibition rate ( CCCCCCCCCCCCCCCCC(=O)OC [Methyl heptadecanoate] ) = 20.9%

====

# Tested on: HCoV-229E
# Parameters: species or system Huh-7; HTS, protection from HCoV-229E induced cell death, luminescent cell viability (CellCounting-Lite 2.0), inhibition rate
# Condition label: 24 h post infection, 1 h compound pre-incubation; 10 µM; inhibitor
In all, about 3,300 compounds went through this assay and about 95 (3%) showed an effect of 50% or more. The entries come from a sample that favours strong results as a whole.
Criterion: 229E Inhibition rate meeting or surpassing 20%. Met: yes (1). Not met: no (0).

Molecule	Study system	Qualitative label
O=C(O)Cc1ccc(O)cc1 [4-Hydroxyphenylacetic acid]	HCoV-229E	yes (1)
COC(=O)[C@@]1(C)CC[C@]2(C(=O)O)CC[C@]3(C)C(=CC[C@@H]4[C@@]5(C)C[C@H](O)[C@H](O)[C@@](C)(CO)[C@@H]5CC[C@]43C)[C@@H]2C1	HCoV-229E	yes (1)
Nc1ncnc2c1ncn2[C@@H]1C[C@H](CO)[C@@H](O)[C@H]1O	HCoV-229E	yes (1)

Ask: Please tell me: is the molecule `COc1c(O)cc2oc3cc4c(c(O)c3c(=O)c2c1CC=C(C)C)CCC(C)(C)O4` at or over 20% in terms of 229E Inhibition rate?
Result: no (0)

Ask: Please tell me: is the molecule `C[C@@H]1O[C@@H](OC[C@H]2O[C@@H](Oc3c(-c4ccc(OCCO)c(OCCO)c4)oc4cc(OCCO)cc(O)c4c3=O)[C@H](O)[C@@H](O)[C@@H]2O)[C@H](O)[C@H](O)[C@H]1O` at or over 20% in terms of 229E Inhibition rate?
Result: yes (1)

====

# Test system: HCoV-229E
# Set-up: species or system Huh-7; HTS, protection from HCoV-229E induced cell death, luminescent cell viability (CellCounting-Lite 2.0), inhibition rate
# Condition label: 24 h post infection, 1 h compound pre-incubation; 10 µM; inhibitor
The whole screen tested about 3,300 compounds, of which about 95 (3%) showed an effect of 50% or more. The entries come from a sample that favours strong results as a whole.
Known 229E Inhibition rate of a selection of compounds
Reply numerically in %, unit not repeated.

Compound	Study system	229E Inhibition rate [%]
O[C@@H]1[C@@H](O)[C@H](OC/C=C/c2ccccc2)O[C@H](CO[C@@H]2OC[C@H](O)[C@H](O)[C@H]2O)[C@H]1O	HCoV-229E	56.6
C[C@@H]1O[C@@H](O[C@H]2[C@H](O[C@H]3CC[C@@]4(C)[C@@H](CC[C@]5(C)[C@@H]4CC=C4[C@@H]6CC(C)(C)CC[C@]6(C(=O)O[C@@H]6O[C@H](CO[C@@H]7O[C@H](CO)[C@@H](O)[C@H](O)[C@H]7O)[C@@H](O)[C@H](O)[C@H]6O)CC[C@]45C)[C@]3(C)CO)OC[C@H](O)[C@@H]2O)[C@H](O)[C@H](O)[C@H]1O [Dipsacoside B]	HCoV-229E	11.1
Cc1cc(C(=O)O)ccc1O [4-Hydroxy-3-methylbenzoic acid]	HCoV-229E	61.9

Reported 229E Inhibition rate ( COC(=O)c1ccc(OC)c(O)c1 [Methyl isovanillate] ) = 12.8

====

# System: HCoV-229E
# Design: species or system Huh-7; HTS, protection from HCoV-229E induced cell death, luminescent cell viability (CellCounting-Lite 2.0), inhibition rate
# Condition label: 24 h post infection, 1 h compound pre-incubation; 10 µM; inhibitor
Among all 3,300 compounds or so, about 95 (3%) showed an effect of 50% or more. For the sample, strong results were picked, then their nearest neighbours and some compounds at random.
Property name: 229E Inhibition rate (%)
Reply numerically in %, unit not repeated.

Compound	Study system	229E Inhibition rate, %
O=c1cc(-c2ccc(O)cc2)oc2cc(O)c([C@@H]3O[C@H](CO)[C@@H](O)[C@H](O)[C@H]3O)c(O)c12	HCoV-229E	21
CCOC(=O)/C=C/c1ccccc1 [Ethyl cinnamate]	HCoV-229E	4
C=C1C(=O)O[C@H]2C[C@@H](C)[C@@H]3[C@@H](OC(C)=O)C[C@H](O)[C@@]3(C)[C@@H](OC(C)=O)[C@H]12	HCoV-229E	3
C[C@H](CCC(=O)O)[C@H]1CC[C@H]2[C@@H]3[C@H](O)C[C@@H]4CC(=O)CC[C@]4(C)[C@H]3C[C@H](O)[C@]12C	HCoV-229E	4.2
C=C1C(=O)O[C@H]2C[C@@H](C)[C@@H]3C=CC(=O)[C@@]3(C)[C@@H](OC(C)=O)[C@H]12	HCoV-229E	4.5
C=C1C(=O)O[C@H]2C[C@@H](C)[C@@H]3CCC(=O)[C@@]3(C)[C@@H](OC(C)=O)[C@H]12 [Ergolide]	HCoV-229E	57.9
COc1cc(-c2oc3cc(O)cc(O)c3c(=O)c2O)ccc1O	HCoV-229E	7.4
CC1(C)C=Cc2c(ccc3c2OC[C@@H](c2ccc(O)cc2O)C3)O1	HCoV-229E	54.3

Reported 229E Inhibition rate ( O=c1cc(-c2ccc(O)cc2)oc2cc(O)c([C@@H]3O[C@H](CO)[C@@H](O)[C@H](O)[C@H]3O[C@@H]3O[C@H](CO)[C@@H](O)[C@H](O)[C@H]3O)c(O)c12 [Meloside A] ) = 56.2

Reported 229E Inhibition rate ( CSCCC(NC(C)=O)C(=O)O (racemic) ) = 32.7

Reported 229E Inhibition rate ( O=C(O)[C@H](O)c1ccccc1 [D-(-)-Mandelic acid] ) = 7.5

Reported 229E Inhibition rate ( `O=C1CCC[C@@H]2[C@H]3CCCN4CCC[C@@H](CN12)[C@H]34` ) = 8.4

Reported 229E Inhibition rate ( `COc1cc2ccc(=O)oc2c(O[C@@H]2O[C@H](CO)[C@@H](O)[C@H](O)[C@H]2O)c1O` ) = 10.9

Reported 229E Inhibition rate ( `CC(=O)OC/C1=C/C[C@H]2[C@@H](/C=C(\C)C(=O)[C@@]3(OC(C)=O)C[C@H](C)[C@H](OC(=O)c4ccccc4)[C@@H]3[C@H]1OC(C)=O)C2(C)C` ) = 41.1
